Data origin, for the record: ChEMBL document CHEMBL1961873

target: Calcium/calmodulin-dependent protein kinase type IV (Homo sapiens) (UniProt Q16566);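 further: each value is a mean inhibition of CAMK4, part of the GSK PKIS kinase screening panel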
Sequence (whole entry): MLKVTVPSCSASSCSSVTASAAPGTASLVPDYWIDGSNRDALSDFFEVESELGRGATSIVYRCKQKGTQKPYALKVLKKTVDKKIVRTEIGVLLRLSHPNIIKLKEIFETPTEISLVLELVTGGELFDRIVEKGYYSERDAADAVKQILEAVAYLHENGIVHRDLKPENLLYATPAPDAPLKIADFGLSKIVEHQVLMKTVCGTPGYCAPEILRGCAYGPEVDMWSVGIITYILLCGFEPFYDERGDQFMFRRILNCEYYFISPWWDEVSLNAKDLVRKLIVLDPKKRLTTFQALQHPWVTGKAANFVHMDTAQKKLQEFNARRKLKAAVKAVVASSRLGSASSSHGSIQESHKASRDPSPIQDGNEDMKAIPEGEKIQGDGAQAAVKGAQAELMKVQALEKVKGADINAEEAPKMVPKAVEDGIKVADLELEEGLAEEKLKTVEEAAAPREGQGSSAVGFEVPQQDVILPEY
applied_conditions: at 0.1 µM
measurement_name: inhibition (%)
Give a bare numeral; the unit % is implied.

What value of inhibition has been recorded for this entry: CN(C)CCCNc1nccc(-c2c(-c3ccc(F)cc3)nn3cc(C(F)(F)F)ccc23)n1
1.43

Using the record for CS(=O)(=O)CCNCc1ccc(-c2ccc3ncnc(Nc4ccc(OCc5ccccc5)c(Br)c4)c3c2)o1 , report its inhibition.
-1.3

Recorded inhibition of Fc1ccc(-c2ncn(CCCN3CCOCC3)c2-c2ccncc2)cc1 , please.
1.75
